Here is a set of compounds with reported IC50 for Melanin-concentrating hormone receptor 1 (Homo sapiens, UniProt Q99705), compiled from the literature.
Answer shape: numeric part, then the unit.

Look over these answered cases.
[[record]]
compound = "CCO/N=C(\\c1ccc(F)c(F)c1)c1ccc(CN2CCC(c3cn(C)c4cnccc34)CC2)cn1"
experimental_endpoint = "IC50"
experimental_value = "0.11 nM"

[[record]]
compound = "Cc1c(C2CCOC2)nc2ccc(NC(=O)c3ccc(SCc4ccccn4)cc3)cn12 (centres unmarked)"
experimental_endpoint = "IC50"
experimental_value = "3.8 nM"

[[record]]
compound = "Cc1c(C2CC2)nc2ccc(NC(=O)CCc3ccc(C(F)(F)F)cc3)cn12"
experimental_endpoint = "IC50"
experimental_value = "4.3 nM"

[[record]]
compound = "CCN(CC)Cc1ccc(C(=O)Cn2ccc(OCc3ccc(Br)cn3)cc2=O)c(C)c1"
experimental_endpoint = "IC50"
experimental_value = "19 nM"

[[record]]
compound = "CC(C)(CO)COc1ccc(-n2ccc(OCc3ccc(F)cc3)cc2=O)cc1"
experimental_endpoint = "IC50"
experimental_value = "63 nM"

[[record]]
compound = "Cc1cc(CN2CC(O)C2)ccc1C(=O)Cn1ncc(OCc2ccccc2)cc1=O"
experimental_endpoint = "IC50"
experimental_value = "10 nM"

[[record]]
compound = "Cc1cc(CN2CCC[C@H]2CO)ccc1C(=O)Cn1ccc(OCc2ccc(Cl)cn2)cc1=O"
experimental_endpoint = "IC50"
experimental_value = "36 nM"

[[record]]
compound = "Cc1cc(CN2CCCC[C@@H]2CO)ccc1C(=O)Cn1ncc(OCc2ccc(Br)cn2)cc1=O"
experimental_endpoint = "IC50"
experimental_value = "20 nM"

[[record]]
compound = "CCN(CC)Cc1ccc(CCn2ccc(OCc3ccc(F)cc3)cc2=O)cc1"
experimental_endpoint = "IC50"
experimental_value = "5.9 nM"

[[record]]
compound = "Cc1cc(CN2CCCC[C@@H]2CO)ccc1C(=O)Cn1ncc(OCc2ccc(Cl)cn2)cc1=O"
experimental_endpoint = "IC50"
experimental_value = "35 nM"


## Input Supply IC50 value. Item: Cc1cc(CN2CCC[C@H](O)C2)ccc1C(=O)Cn1ncc(OCc2ccccc2)cc1=O
## Output 13 nM

## Input Supply IC50 value. Item: O=c1cc(OCc2ccc(F)cc2)ccn1-c1ccc(OCCN2CCCCC2)cc1
## Output 4.9 nM

## Input Supply IC50 value. Item: O=C(c1nnc(-c2ccccc2)o1)N1CC(Oc2ccc(CN3CC4(COC4)C3)cc2Cl)C1
## Output 24 nM

* * *

Here is a set of compounds with reported IC50 for Melanin-concentrating hormone receptor 1 (Homo sapiens, UniProt Q99705), compiled from the literature.
Returns: string. Value is rule met if measured IC50 is below 20 nM, and rule not met if it is greater than or equal to it.

[[record]]
compound = "CC(C)[C@@H]1NC(=O)[C@H](CCCNC(=N)N)NC(=O)CCCCNC(=O)CCCCNC(=O)CCCCNC(=O)[C@@H](NC(=O)CCCCNC(=N)N)CSSC[C@@H](C(N)=O)NC(=O)CCCCNC(=O)CCCCNC(=O)[C@H](Cc2ccc(O)cc2)NC1=O"
class_assignment = "rule not met"

[[record]]
compound = "OC1CCN(Cc2ccc(CCc3ccc(OCC4CCCCO4)nn3)cc2)CC1 (stereo not shown)"
class_assignment = "rule not met"


## Input Would you kindly verify if IC50 of CCNCc1ccc(C(=O)Cn2ccc(OCc3ccccc3)cc2=O)c(C)c1 is strictly less than 20 nM?
## Output rule not met

## Input Would you kindly verify if IC50 of Cc1cc(CN2CC[C@@H](O)C2)ccc1C(=O)Cn1ncc(OCc2ccc(Cl)cn2)cc1=O is strictly less than 20 nM?
## Output rule not met

## Input Would you kindly verify if IC50 of CN1CC[C@@H](Oc2ccc(-n3ccc(OCc4ccc(Cl)cn4)cc3=O)cc2)C1 is strictly less than 20 nM?
## Output rule met

## Input Would you kindly verify if IC50 of CC1(O)CCN(Cc2ccc(C(=O)Cn3ccc(OCc4ccccc4)cc3=O)cc2)CC1 is strictly less than 20 nM?
## Output rule met

## Input Would you kindly verify if IC50 of O=c1cc(OCc2ccccc2)ccn1-c1ccc(O[C@@H]2CCN(C3CCCC3)C2)cc1 is strictly less than 20 nM?
## Output rule met
